Data origin, for the record: patent US20100331315A1

- test target: recombinant human CK2 (Homo sapiens, UniProt P68400)
- Construct: purchased Upstate
- Sequence (P68400 whole entry): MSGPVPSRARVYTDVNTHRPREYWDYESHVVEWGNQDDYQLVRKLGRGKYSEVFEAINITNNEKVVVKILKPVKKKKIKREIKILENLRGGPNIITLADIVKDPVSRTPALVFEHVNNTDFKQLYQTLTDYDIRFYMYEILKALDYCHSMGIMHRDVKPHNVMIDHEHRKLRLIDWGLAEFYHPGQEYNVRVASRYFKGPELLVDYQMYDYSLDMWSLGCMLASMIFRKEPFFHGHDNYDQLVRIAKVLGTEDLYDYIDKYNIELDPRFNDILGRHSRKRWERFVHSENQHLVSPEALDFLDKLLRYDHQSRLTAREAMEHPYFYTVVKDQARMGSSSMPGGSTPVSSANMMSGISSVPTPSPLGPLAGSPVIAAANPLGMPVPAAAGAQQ
- Sequence (P67870 whole entry partner): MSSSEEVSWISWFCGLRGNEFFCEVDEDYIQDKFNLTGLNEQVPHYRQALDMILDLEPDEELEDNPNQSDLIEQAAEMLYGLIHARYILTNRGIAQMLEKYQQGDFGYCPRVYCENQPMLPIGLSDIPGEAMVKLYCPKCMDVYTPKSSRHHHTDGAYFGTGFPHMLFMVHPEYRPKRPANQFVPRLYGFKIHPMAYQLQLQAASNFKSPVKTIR
- protocol: CK2 assay (cell-free, 33P-ATP filter plate)
- Format: biochemical
- particulars: Table 4
pIC50: −log10 of the molar value.
Note to self: values exactly at 8 are T. So pIC50 at or above 8 is T, below is F.

Could you verify whether the entry CN1CCCN(c2cncc(-c3cccc(/C=C4\SC(=S)NC4=O)c3)n2)CC1 shows pIC50 of no less than 8?
T

Same question, CN1CCCN(c2cncc(-c3ccc(/C=C4\SC(=S)NC4=O)o3)n2)CC1 this time
F

What about CN1CCCN(c2cncc(-c3cccc(/C=C4\SC(=O)NC4=O)c3)n2)CC1 ?
T

Thanks! And CN1CCCN(c2cncc(-c3ccc(/C=C4\NC(=O)NC4=O)o3)n2)CC1 ?
F
